Molecular target: Recombinant human his-tagged IGF R extracellular domain protein (human) (UniProt P08069)
Assay: SPR, Ab captured via anti-huIgG Fc, dissociation at pH 6
Measured parameter: koff (s⁻¹)
Supply the numeric figure in s⁻¹, leaving out any unit text.

// worked examples, koff included
>  <Binder>
VRDN-02039 (antibody, V domains shown) VH: QVQLQESGPGLVKPSETLSLTCTVSGYSITGGYLWNWIRQPPGKGLEWIGYISYDGTNNYKPSLKDRVTISRDTSKNQFSLKLSSVTAADTAVYYCARYGRVFFDYWGQGTLVTVSS VL: DIVMTQSPLSLPVTPGEPASISCRSSQSIVHSNGHTYLQWYLQKPGQSPQLLIYKVSNRLYGVPDRFSGSGSGTDFTLKISRVEAEDVGVYYCFQGSHVPWTFGQGTKVEIK

>  <Unit abbrev>
s⁻¹

>  <koff>
0.000109

$$$$
>  <Binder>
VRDN-02034 (antibody, V domains shown) VH: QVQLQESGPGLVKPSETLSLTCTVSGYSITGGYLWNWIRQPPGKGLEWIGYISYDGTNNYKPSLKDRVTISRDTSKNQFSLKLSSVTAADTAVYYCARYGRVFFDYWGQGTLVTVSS VL: DIVMTQSPLSLPVTPGEPASISCRSSQSHVHSNGNTYLQWYLQKPGQSPQLLIYKVSNRLYGVPDRFSGSGSGTDFTLKISRVEAEDVGVYYCFQGSHVPWTFGQGTKVEIK

>  <Unit abbrev>
s⁻¹

>  <koff>
0.000107

$$$$

We next turn to a different binder, shown below.
Task item: // returns reported koff for input VRDN-02067 (antibody, V domains shown) VH: QVQLQESGPGLVKPSETLSLTCTVSGYSITGGYLWNWIRQPPGKGLEWIGYISYDGTNNYKPSLKDRVTISRDTSKNQFSLKLSSVTAADTAVYYCARHGRVFFDYWGQGTLVTVSS VL: DIVMTQSPLSLPVTPGEPASISCRSSQSIVHSNGNTYLQWYLQKPGQSPQLLIYKVSNRLYGVPDRFSGSGSGTDFTLKISRVEAEDVGVYYCFQGSHVHWTFGQGTKVEIK
Reply: 5.44e-05
